- tested_on: p62-D3-GST
- protocol_notes: Surface plasmon resonance (Biacore) binding of p62-D3-GST to immobilised X-peptide
- recorded_conditions: Biacore, p62-D3-GST
Provide the reported Kd of each item.
Number only, in nM; omit the unit.

Input: Kindly state the measured Kd obtained for RIFSTIEGRTY [R11] with p62-D3-GST.
Output: 44

Input: Kindly state the measured Kd obtained for FIFSTIEGRTY [F11, reference compound] with p62-D3-GST.
Output: 3400

====

- tested_on: p62-D3-GST
- protocol_notes: Surface plasmon resonance (Biacore) binding of p62-D3-GST to immobilised X-peptide
- recorded_conditions: Biacore, p62-D3-GST; listed as Nt-Arg
metric_name: Kd (nM)
Number only, in nM; omit the unit.

Input: Which Kd value belongs to RIFSTIEGRTY [R11] ?
Output: 40
